Test protocol: endothelial E-selectin expression blockers – imaging, HUVEC, immunofluorescence, MLSMR starter and 10KST1 sets, primary screen (AID 487);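 note: 100% = median nuclei count of all wells on the same plate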
Condition context: HUVEC TNFalpha-induced E-selectin immunofluorescence imaging, at 2 µM; measured here: cell number, toxicity
Test readout: nuclei count (%)

INSERT INTO results (smiles, unit_string, recorded_value) VALUES
  ('Cc1cc(NCCCn2ccnc2)n2c(nc3ccccc32)c1C#N', '%', 80.2),
  ('CCC(=O)n1nc(-c2ccco2)nc1N', '%', 114),
  ('Cc1cc2ncn(N)c2cc1C', '%', 118),
  ('CC(=O)c1cccc(NC(=O)c2ccc(NS(C)(=O)=O)cc2)c1', '%', 98.5),
  ('Cc1ccccc1-c1nc(CN2CCC(C(=O)NCCCN3CCOCC3)CC2)c(C)o1', '%', 102),
  ('Cc1noc(C)c1COc1cccc(C(=O)Oc2ccc3c(c2)OCO3)c1', '%', 100);

These entries and their values trace back to PubChem BioAssay.
